Literature Ki values, system: Aurora kinase A (Homo sapiens).

# count of solved cases: 3
Look up Aurora kinase A (Homo sapiens) data: Ki of COc1ccccc1-c1cnc2c(-c3ccccn3)c(N)nn2c1 , then report it.
0.5 to 5 µM

Look up Aurora kinase A (Homo sapiens) data: Ki of Fc1cccc(-c2cnoc2-c2c[nH]c3ncc(-c4ccncc4)cc23)c1F , then report it.
< 0.2 µM

Look up Aurora kinase A (Homo sapiens) data: Ki of Nc1ccnc(-c2cnc3[nH]cc(-c4oncc4-c4cccc(F)c4F)c3c2)c1 , then report it.
0.2 to 1 µM

---
Look up Aurora kinase A (Homo sapiens) data: Ki of c1ccc(Oc2cccc(-c3nc(Nc4cc(C5CC5)n[nH]4)c4ccccc4n3)c2)cc1 , then report it.
< 0.1 µM

Look up Aurora kinase A (Homo sapiens) data: Ki of CCN(C(=O)c1c(N)nn2cc(-c3ccncn3)cnc12)C(C)C , then report it.
0.5 to 5 µM

Look up Aurora kinase A (Homo sapiens) data: Ki of COc1ccc(-c2cnc3c(-c4ccncc4)c(N)nn3c2)cc1 , then report it.
0.5 to 5 µM

----------
pKi: −log10 of the molar value.
Literature pKi values, system: UniProt O14965.

# count of solved cases: 5
Supply measured pKi of Cc1cnc(Nc2cc(N3CC[C@@H](O)C3)nc(Sc3ccc(NC(=O)C4CC4)cc3)n2)s1 in your reply.
≥ 8.00

Supply measured pKi of CCN(CC)CCn1cc(Nc2ncc(Cl)c(N[C@H]3[C@@H](C(N)=O)[C@@H]4C=C[C@H]3C4)n2)cn1 (racemic) in your reply.
> 7.00

Supply measured pKi of c1ccc2c(Nc3cc(C4CC4)[nH]n3)nc(Nc3ccc(N4CCOCC4)cc3)nc2c1 in your reply.
> 7.00

Supply measured pKi of CCC(=O)Nc1ccc(Sc2nc(Nc3cc(C)n[nH]3)cc(N3CCC(N4CCCC4(C)C)C3)n2)cc1 (stereo not shown) in your reply.
≥ 8.00

Supply measured pKi of c1ccc(-c2cc(Nc3nc(-c4ccccc4)nc4ccccc34)[nH]n2)cc1 in your reply.
6.00 to 7.00

Pending compound:
Supply measured pKi of CCc1cc(Nc2cc(C)n[nH]2)nc(-c2ccccc2OC(F)(F)F)n1 in your reply.
6.00 to 7.00

----------
Literature pKi values, system: Aurora kinase A (Homo sapiens, UniProt O14965).
pKi: −log10 of the molar value.

# count of solved cases: 4
Look up Aurora kinase A (Homo sapiens, UniProt O14965) data: pKi of Cc1cc(Nc2cc(-c3c(C)cccc3C)nc(Oc3ccc4ccccc4c3)n2)n[nH]1 , then report it.
5.00 to 6.00

Look up Aurora kinase A (Homo sapiens, UniProt O14965) data: pKi of c1ccc2c(c1)CCN(c1nc(Nc3cc(C4CC4)n[nH]3)c3ccccc3n1)C2 , then report it.
> 7.00

Look up Aurora kinase A (Homo sapiens, UniProt O14965) data: pKi of Cc1cc(Nc2cc(C)[nH]n2)nc(C(C)(C)c2ccccc2)n1 , then report it.
6.00 to 7.00

Look up Aurora kinase A (Homo sapiens, UniProt O14965) data: pKi of CCCN(CCCN)C(=O)c1ccc(-c2cnc3c(-c4ccccn4)c(N)nn3c2)nc1 , then report it.
5.30 to 6.30

---
Look up Aurora kinase A (Homo sapiens, UniProt O14965) data: pKi of Cn1cc(Nc2ncc(C(F)(F)F)c(Nc3ccccc3C3(O)CNC3)n2)cn1 , then report it.
> 7.00

----------
Literature Ki values, system: Aurora kinase A (Homo sapiens, UniProt O14965).

# count of solved cases: 8
Look up Aurora kinase A (Homo sapiens, UniProt O14965) data: Ki of CCc1cc(Nc2cc(C)[nH]n2)nc(Nc2nc3ccccc3[nH]2)n1 , then report it.
1000 to 10000 nM

Look up Aurora kinase A (Homo sapiens, UniProt O14965) data: Ki of COc1ccc(-c2cnc3c(C#N)c(N)nn3c2)cc1 , then report it.
500 to 5000 nM

Look up Aurora kinase A (Homo sapiens, UniProt O14965) data: Ki of NC(=O)c1ccc(-c2cnc3[nH]cc(-c4oncc4-c4cccc(F)c4F)c3c2)cc1 , then report it.
< 200 nM

Look up Aurora kinase A (Homo sapiens, UniProt O14965) data: Ki of CCCOC(=O)Nc1ccc(Nc2ncn(-c3ccnc(N4C[C@@H](C)N(C(C)=O)[C@@H](C)C4)c3)n2)cc1 , then report it.
< 100 nM

Look up Aurora kinase A (Homo sapiens, UniProt O14965) data: Ki of NC(=O)[C@@H]1[C@H](Nc2nc(Nc3cnn(C[C@H](O)CO)c3)ncc2Cl)[C@H]2C=C[C@@H]1C2 , then report it.
< 100 nM

Look up Aurora kinase A (Homo sapiens, UniProt O14965) data: Ki of CC(C)CN(C)c1cc(-c2c(N)nn3cc(-c4ccncc4)cnc23)ncn1 , then report it.
< 500 nM

Look up Aurora kinase A (Homo sapiens, UniProt O14965) data: Ki of Cc1cc(Nc2nc(-c3ccc(I)cc3)nc3ccccc23)[nH]n1 , then report it.
< 100 nM

Look up Aurora kinase A (Homo sapiens, UniProt O14965) data: Ki of CCn1cc(Nc2ncc(Cl)c(N[C@H]3[C@@H](C(N)=O)[C@@H]4C=C[C@H]3C4)n2)cn1 , then report it.
< 100 nM

---
Look up Aurora kinase A (Homo sapiens, UniProt O14965) data: Ki of CN1CCN(c2cc(Nc3cc(C4CC4)[nH]n3)nc(Oc3ccc4ccccc4c3)n2)CC1 , then report it.
1000 to 10000 nM

Look up Aurora kinase A (Homo sapiens, UniProt O14965) data: Ki of CC(=O)Nc1cc(Nc2nccc(-c3sc(=O)n(C)c3C)n2)cc(C(F)(F)F)c1 , then report it.
170 nM

Look up Aurora kinase A (Homo sapiens, UniProt O14965) data: Ki of CNC(=O)[C@@H]1[C@H](Nc2nc(Nc3cnn(C)c3)ncc2C(F)(F)F)[C@H]2C=C[C@@H]1C2.CNC(=O)[C@H]1[C@@H](Nc2nc(Nc3cnn(C)c3)ncc2C(F)(F)F)[C@@H]2C=C[C@H]1C2 (mixture of isomers) , then report it.
< 100 nM

Look up Aurora kinase A (Homo sapiens, UniProt O14965) data: Ki of OCCc1ccc(Nc2nc(Nc3cc(C4CC4)[nH]n3)c3ccccc3n2)cc1 , then report it.
< 100 nM

Look up Aurora kinase A (Homo sapiens, UniProt O14965) data: Ki of Cc1cc(Nc2nc(N3CCNCC3)nc3ccccc23)[nH]n1 , then report it.
100 to 1000 nM

Look up Aurora kinase A (Homo sapiens, UniProt O14965) data: Ki of CCn1c(C)c(-c2ccnc(Nc3ccc([N+](=O)[O-])cc3)n2)sc1=O , then report it.
25 nM

Look up Aurora kinase A (Homo sapiens, UniProt O14965) data: Ki of Fc1cccc(-c2cnoc2-c2c[nH]c3ncc(-c4ccc(CN5CCCC5)cc4)cc23)c1F , then report it.
< 200 nM

Look up Aurora kinase A (Homo sapiens, UniProt O14965) data: Ki of Nc1ccc(-c2nc(Nc3n[nH]c4c(F)cc(F)cc34)c3ccccc3n2)c(Cl)c1 , then report it.
1000 to 20000 nM

Look up Aurora kinase A (Homo sapiens, UniProt O14965) data: Ki of Nc1nn2cc(-c3cccc(CN4CCNCC4)c3)cnc2c1-c1ccccn1 , then report it.
500 to 5000 nM

Look up Aurora kinase A (Homo sapiens, UniProt O14965) data: Ki of NC(=O)[C@@H]1[C@H](Nc2nc(Nc3cnn(CCN4CCCCC4)c3)ncc2Cl)[C@H]2C=C[C@@H]1C2.NC(=O)[C@H]1[C@@H](Nc2nc(Nc3cnn(CCN4CCCCC4)c3)ncc2Cl)[C@@H]2C=C[C@H]1C2 (mixture of isomers) , then report it.
< 100 nM

Look up Aurora kinase A (Homo sapiens, UniProt O14965) data: Ki of CCC(=O)Nc1ccc(Sc2nc(Nc3cc(C)n[nH]3)cc(N3CCC(O)(CC(C)(C)C)C3)n2)cc1 (stereo not drawn) , then report it.
≤ 10 nM

Look up Aurora kinase A (Homo sapiens, UniProt O14965) data: Ki of Cc1cc(Nc2nc(-c3ccccc3C)nc3ccccc23)n[nH]1 , then report it.
< 100 nM

Look up Aurora kinase A (Homo sapiens, UniProt O14965) data: Ki of Clc1ccccc1Sc1nc(Nc2cc(C3CC3)[nH]n2)c2ccccc2n1 , then report it.
< 100 nM

Look up Aurora kinase A (Homo sapiens, UniProt O14965) data: Ki of CC1CCN(c2nc(Nc3cc(C4CC4)n[nH]3)c3nccc-3[nH]2)CC1 , then report it.
< 100 nM

Look up Aurora kinase A (Homo sapiens, UniProt O14965) data: Ki of CC(=O)N1[C@H](C)CN(c2cc(-n3cnc(Nc4ccc(N5CCOCC5)cc4)n3)ccn2)C[C@@H]1C , then report it.
< 100 nM

Look up Aurora kinase A (Homo sapiens, UniProt O14965) data: Ki of CCC(=O)Nc1ccc(Sc2nc(Nc3cc(C)n[nH]3)cc(N3CC4CN(C(C)C)CC4C3)n2)cc1 (stereo not drawn) , then report it.
≤ 10 nM

Look up Aurora kinase A (Homo sapiens, UniProt O14965) data: Ki of Cc1ccc(Nc2nccc(-c3sc(=O)n(C)c3C)n2)cc1S(=O)(=O)N1CCOCC1 , then report it.
1100 nM

Look up Aurora kinase A (Homo sapiens, UniProt O14965) data: Ki of Cc1cccc(Cn2cc(Nc3ncc(Cl)c(N[C@H]4[C@@H](C(N)=O)[C@@H]5C=C[C@H]4C5)n3)cn2)c1 , then report it.
< 100 nM

Look up Aurora kinase A (Homo sapiens, UniProt O14965) data: Ki of CC(C)CNc1cc(-c2c(N)nn3cc(-c4ccncc4)cnc23)ncn1 , then report it.
< 500 nM

Look up Aurora kinase A (Homo sapiens, UniProt O14965) data: Ki of NC(=O)[C@@H]1[C@H](Nc2nc(Nc3cnn([C@@H]4CCCNC4)c3)ncc2Cl)[C@H]2C=C[C@@H]1C2 , then report it.
< 100 nM

Look up Aurora kinase A (Homo sapiens, UniProt O14965) data: Ki of NC(=O)[C@@H]1[C@H](Nc2nc(Nc3cnn([C@@H]4CCOC4)c3)ncc2Cl)[C@H]2C=C[C@@H]1C2 , then report it.
< 100 nM

Look up Aurora kinase A (Homo sapiens, UniProt O14965) data: Ki of COCCn1cc(Nc2ncc(Cl)c(N[C@H]3[C@@H](C(N)=O)[C@@H]4C=C[C@H]3C4)n2)cn1 , then report it.
< 100 nM
